As shown below, each of these compounds has a reported inhibition at 10 µM value.
biological target: KRAS(G12C) (Homo sapiens, UniProt P01116, G12C); experiment: KRAS(G12C) Western blot protein degradation assay in MIA PaCa-2 cells; format: cell-based; set-up: host or cells: LU65A; settings: 10,000 nM, 48 hr
Sequence (P01116 1-188 isoform P01116-2 G12C): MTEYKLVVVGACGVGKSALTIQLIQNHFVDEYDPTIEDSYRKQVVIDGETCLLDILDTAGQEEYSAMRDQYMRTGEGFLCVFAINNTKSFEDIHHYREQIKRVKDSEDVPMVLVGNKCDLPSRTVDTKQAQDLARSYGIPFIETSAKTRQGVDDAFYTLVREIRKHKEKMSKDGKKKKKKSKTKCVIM

[[record]]
compound = "C=CC(=O)N1CCN(c2nc(OC[C@@H]3CCN(C(=O)c4cc(C(C)C)c(OC)cc4O)C3)nc3c2CCN(c2cccc4cccc(Cl)c24)C3)C[C@@H]1CC#N [Compound 159]"
system_tested = "KRAS(G12C) (Homo sapiens, UniProt P01116, G12C)"
reported_metric = "inhibition at 10 µM"
result = "< 33%"


GET /values?readout=inhibition at 10 µM&item= C=CC(=O)N1CCN(c2nc(OC[C@@H]3CCCN3C(=O)C3CCN(Cc4ccc(-n5c(O)nnc5-c5cc(C(C)C)c(O)cc5O)cc4)CC3)nc3c2CCN(c2cccc4cccc(Cl)c24)C3)C[C@@H]1CC#N [Compound 139]
< 33%

Another compound: C=CC(=O)N1CCN(c2nc(OC[C@@H]3CCN(C(=O)C4CCN(Cc5ccc(-n6c(C(=O)NCC(F)(F)F)nnc6-c6cc(C(C)C)c(O)cc6O)cc5)CC4)C3)nc3c2CCN(c2cccc4cccc(Cl)c24)C3)C[C@@H]1CC#N [Compound 185]
> 66%

Further, for C=CC(=O)N1CCN(c2nc(OC[C@@H]3CCN(CCC(=O)c4cc(C(C)C)c(O)cc4O)C3)nc3c2CCN(c2cccc4cccc(Cl)c24)C3)C[C@@H]1CC#N [Compound 186, trifluoroacetic acid] ?
33 to 66%

What do you get for C=C(F)C(=O)N1CCN(c2nc(OC[C@@H]3CCN(C(=O)C4CCN(Cc5ccc(-n6c(C(=O)NCC(F)(F)F)nnc6-c6cc(C(C)C)c(O)cc6O)cc5)CC4)C3)nc3c2CCN(c2cccc4cccc(Cl)c24)C3)C[C@@H]1CC#N [Compound 168] ?
33 to 66%

C=CC(=O)N1CCN(c2nc(OC[C@@H]3CCN(C(=O)C4CCN(Cc5ccc(-n6c(O)nnc6-c6cc(C(C)C)c(O)cc6O)cc5)CC4)C3)nc3c2CCN(c2cccc4cccc(Cl)c24)C3)C[C@@H]1CC#N [Compound 148] ?
33 to 66%

Queued: C=CC(=O)N1CCN(c2nc(OC[C@@H]3CCN(C(=O)c4cc(C(C)C)c(O)cc4OC)C3)nc3c2CCN(c2cccc4cccc(Cl)c24)C3)C[C@@H]1CC#N [Compound 153]
< 33%

Queued: C=CC(=O)N1CCN(c2nc(OC[C@@H]3CCN(C(=O)c4cc(C(C)C)c(O)cc4O)C3)nc3c2CCN(c2cccc4cccc(Cl)c24)C3)C[C@@H]1CC#N [Compound 157]
< 33%

Data provenance: patent US20230391772A1
